Measured TGI, listed per entry.
Tested on: HOP-92 NSCLC
PROTOCOL_NOTES: NCI tumour cell line growth inhibition, 48 h
MEASURE: TGI

1) Cc1cccc(C(C)(C)C)c1NC(=O)C(=O)C(C(=O)/C=C\c1ccccc1)C1OC(=O)c2ccccc21 (stereo not drawn) : > 100 µM
2) Clc1ccc(-n2nnc(C3=NCCN3)c2-c2ccccc2)cc1 : > 100 µM
3) C1CC[N-]CC1.C1CC[N-]CC1.C1CC[N-]CC1.C1CC[N-]CC1.[Cl][Rh][Cl] : 22.1 µM
4) CC(C)(C)C(=O)O[C@H]1C=C[C@@H](O)[C@@H]2[C@H]1[C@@H]1C=C[C@H]2C1 : > 100 µM
5) N[C@@H](Cc1c[nH]c2ccccc12)C(=O)NC1CCN(C(=O)c2c[nH]c3ccccc23)CC1 : > 100 µM
6) Cc1cc(C)c(C#N)c(SC(=S)NC(=O)c2ccccc2)n1 : > 100 µM
7) O=C1CCC(Cc2ccc(Cl)cc2Cl)C(=O)N1 (stereo not drawn) : > 100 µM
8) c1ccc(Cc2nc3ccc(Nc4ncnc5ccccc45)cc3[nH]2)cc1 : > 25 µM
9) Cc1ccc(C(=O)NN=C(/N=N/c2cccc(C)c2)c2ccc(N(C)C)cc2)cc1 : > 100 µM
10) Cc1cccc(-c2nc3c(C(=O)NCCN(C)C)cccc3[nH]2)c1 : 3.46 µM
11) CC(=O)NCC1OC2COC(c3ccccc3)OC2C2N=C(c3ccccc3)OC12 (stereo not drawn) : > 100 µM
12) O=C(O)c1ccc2c(c1)Cc1cc([N+](=O)[O-])ccc1-2 : > 100 µM
13) Cc1ccc(NC(=O)CC2C(=O)Nc3ccccc3S2=O)cc1C (stereo not drawn) : 74.2 µM
